Please provide measured MIC for the entries that follow.
Tested on: Streptococcus pneumoniae
Test: Antibacterial activity against erythromycin-resistant Streptococcus pneumoniae A22072 expressing mefA gene
Type: functional
Only the number, expressed in µg/mL, is required.

Task: Give the reported value of MIC for this record: "CC[C@H]1OC(=O)[C@H](C)[C@@H](O[C@H]2C[C@@](C)(OC)[C@@H](OC(=O)NCc3cn(Cc4ccccc4Cl)nn3)[C@H](C)O2)[C@H](C)[C@@H](O[C@@H]2O[C@H](C)C[C@H](N(C)C)[C@H]2O)[C@](C)(O)C[C@@H](C)CN(C)[C@H](C)[C@H]2OC(=O)O[C@@]21C"
Output: 2

Task: Read off the recorded MIC for "CC[C@H]1OC(=O)[C@H](C)[C@@H](O[C@H]2C[C@@](C)(OC)[C@@H](OC(=O)NCc3cn(Cc4cccc(Cl)c4)nn3)[C@H](C)O2)[C@H](C)[C@@H](O[C@@H]2O[C@H](C)C[C@H](N(C)C)[C@H]2O)[C@](C)(O)C[C@@H](C)CN(C)[C@H](C)[C@H]2OC(=O)O[C@@]21C"
Output: 0.5

Task: Read the entry "CC[C@H]1OC(=O)[C@H](C)[C@@H](O[C@H]2C[C@@](C)(OC)[C@@H](OC(=O)NCc3cn(C4CCCCC4)nn3)[C@H](C)O2)[C@H](C)[C@@H](O[C@@H]2O[C@H](C)C[C@H](N(C)C)[C@H]2O)[C@](C)(O)C[C@@H](C)CN(C)[C@H](C)[C@H]2OC(=O)O[C@@]21C" and write its reported MIC.
Output: 1

----------
Tested on: Streptococcus pneumoniae
Experiment: Antibacterial activity against erythromycin-susceptible Streptococcus pneumoniae ATCC 49619
Assay type: functional
Assign MIC to each entry below.
The reply should contain only the number, in µg/mL.

Task: Given "CC[C@H]1OC(=O)[C@H](C)[C@@H](O[C@H]2C[C@@](C)(OC)[C@@H](OC(=O)NCc3cn(Cc4ccccc4F)nn3)[C@H](C)O2)[C@H](C)[C@@H](O[C@@H]2O[C@H](C)C[C@H](N(C)C)[C@H]2O)[C@](C)(O)C[C@@H](C)CN(C)[C@H](C)[C@H]2OC(=O)O[C@@]21C" , respond with its MIC.
Output: 0.5

Task: Specify MIC for "CC[C@H]1OC(=O)[C@H](C)[C@@H](O[C@H]2C[C@@](C)(OC)[C@@H](OC(=O)NCc3cn(Cc4ccc(Cl)cc4)nn3)[C@H](C)O2)[C@H](C)[C@@H](O[C@@H]2O[C@H](C)C[C@H](N(C)C)[C@H]2O)[C@](C)(O)C[C@@H](C)CN(C)[C@H](C)[C@H]2OC(=O)O[C@@]21C" and stop.
Output: 1

----------
Test system: Streptococcus pneumoniae
Assay: Antibacterial activity against erythromycin-resistant Streptococcus pneumoniae A22072 expressing mefA gene
Type: functional
Can you tell me MIC for the items I'm about to list?

Task: Report MIC, nothing else, for this compound: "CC[C@H]1OC(=O)[C@H](C)[C@@H](O[C@H]2C[C@@](C)(OC)[C@@H](OC(=O)NCc3cn(Cc4ccccc4C)nn3)[C@H](C)O2)[C@H](C)[C@@H](O[C@@H]2O[C@H](C)C[C@H](N(C)C)[C@H]2O)[C@](C)(O)C[C@@H](C)CN(C)[C@H](C)[C@H]2OC(=O)O[C@@]21C"
Output: 2 µg/mL

Task: // Input: "CC[C@H]1OC(=O)[C@H](C)[C@@H](O[C@H]2C[C@@](C)(OC)[C@@H](OC(=O)NCc3cn(Cc4cccc(C)c4)nn3)[C@H](C)O2)[C@H](C)[C@@H](O[C@@H]2O[C@H](C)C[C@H](N(C)C)[C@H]2O)[C@](C)(O)C[C@@H](C)CN(C)[C@H](C)[C@@H](O)[C@]1(C)O" . Output its MIC only.
Output: 1 µg/mL

Task: Give recorded MIC. "CC[C@H]1OC(=O)[C@H](C)[C@@H](O[C@H]2C[C@@](C)(OC)[C@@H](OC(=O)NCc3cn(Cc4ccccc4F)nn3)[C@H](C)O2)[C@H](C)[C@@H](O[C@@H]2O[C@H](C)C[C@H](N(C)C)[C@H]2O)[C@](C)(O)C[C@@H](C)CN(C)[C@H](C)[C@H]2OC(=O)O[C@@]21C"
Output: 1 µg/mL
